B1: HDV Ribozyme (parent)
chain: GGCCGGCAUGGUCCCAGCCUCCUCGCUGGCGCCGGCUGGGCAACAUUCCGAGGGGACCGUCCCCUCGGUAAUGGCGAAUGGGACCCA

- Variants of: B1
- Experiment Summary: self-cleavage, relative activity (ratio to wild type); higher = more cleavage; co-transcriptional
Classify as follows. Reported self-cleavage greater than or equal to 0.2: true. Reported self-cleavage below: false.

Answered examples (5):
>  <Sequence>
GGCCGGCAUGGUCCCAGCCUCCUCGCUGGCGCCGGCUGGGCAACAUUCCGAGGGGACCGUACCCUGGGUAAUGGCGAAUGGGACCCA [C61A C66G]

>  <Label>
true

$$$$
>  <Sequence>
GGCCGGCAUCGUCCCAGCCUCCUCGCUGGCGCCGGCUGGGCAACAUUCCGAGGGGACCGUCCCCUCGGUAAUGGCGAAUGGGACCCU [G10C A87U]

>  <Label>
true

$$$$
>  <Sequence>
GGCCGGCAUGGUUCCAGCCUCCUCGCUGGCGCCGGCUGGGCAACAUUCCGAGGGGACCGUCCCCUUGGUAAUGGCGAAUGGGACCCA [C13U C66U]

>  <Label>
true

$$$$
>  <Sequence>
GGCCGGCAUGGUCCCAGCCUCCUCGCUGGCGCCGGCUGGGCAACAUUUCGAGGGGACCGUCCCCUCGGUAAUGGCCAAUGGGACCCA [C48U G76C]

>  <Label>
true

$$$$
>  <Sequence>
CGCCGGCAUGGUCCCAGCCUCCUCGCUGGCGCCGGCUGGGCAACAUUCCGAGGGGACCGUCCCGUCGGUAAUGGCGAAUGGGACCCA [G1C C64G]

>  <Label>
true

$$$$

Does the reported self-cleavage for GGCCGGCAUGGUCCCAGCCUCCUCGCUGGCGCCGGCUCGGCCACAUUCCGAGGGGACCGUCCCCUCGGUAAUGGCGAAUGGGACCCA [G38C A42C] fall at or above the 0.2 mark?
false
